// data source = PubChem BioAssay (NCI)

Catalogue of compounds with associated TGI
System: HCT-116 colon
Assay: NCI tumour cell line growth inhibition, 48 h
Endpoint Name: TGI (µM)

{"columns": ["Compound", "Endpoint Name", "Comparison Symbol", "Observed"],
 "data": [
  ["COc1ccc(Nc2[nH]c(C(C)=O)c(N)c2C(=S)Nc2ccccc2)cc1", "TGI", ">", 100],
  ["C=CC1=CSNN1", "TGI", ">", 100],
  ["Brc1cccc(-c2cc(-c3ccc4c(c3)OCCO4)[nH]n2)c1", "TGI", "=", 29.4],
  ["COc1ccc(-c2c(C#N)c(N)n(C3OC(CO)C(O)C(O)C3O)c(=S)c2C#N)cc1 (stereo not given)", "TGI", ">", 100],
  ["CC(=O)[CH-]C(=O)c1ccccc1.CC(=O)[CH-]C(=O)c1ccccc1.CCCCCCCCCCCCCCCCCC(=O)[O-].CCCCCCCCCCCCCCCCCC(=O)[O-].[Ti+4]", "TGI", "=", 36.5],
  ["CC(C)(C)C(=O)C(CC(=O)c1ccccc1)C(=O)C(C)(C)C", "TGI", ">", 100],
  ["COc1ccc(/C(=C/n2ccnc2)C(=O)c2ccc(OC)c(OC)c2)cc1", "TGI", ">", 100],
  ["CCN1CCN(c2nc(NCCCNc3ccnc4cc(Cl)ccc34)c3ccccc3n2)CC1", "TGI", "=", 6.53],
  ["c1cc(-c2cnc(-c3ccc4c(c3)CCCO4)o2)ccn1", "TGI", "=", 31.6],
  ["O=C(NS(=O)(=O)Nc1ccc(Cl)cc1)OCc1ccc(Cl)cc1Cl", "TGI", "=", 45.5]
]}

###

Test system: UACC-257 melanoma
Test: NCI tumour cell line growth inhibition, 48 h

{"columns": ["Compound", "TGI"],
 "data": [
  ["CSC1=NC=CCN1C", "> 100 µM"],
  ["O=[N+]([O-])[C@@H]1C2C=CC(C2)[C@H]1Cl (stereo partly specified)", "> 100 µM"],
  ["CN(C)/C(=N/C(=S)Nc1ccccc1)SCc1ccccc1", "> 100 µM"],
  ["CCCCCCCCCCCCCC(=S)NCCCC[C@H](NC(=O)OCc1ccccc1)C(=O)Nc1ccccc1", "> 100 µM"],
  ["O=C(NS(=O)(=O)Nc1ccc(Cl)cc1)OCc1ccc(Cl)cc1Cl", "> 100 µM"],
  ["C=CC(=O)c1ccc2c(c1)OCCOCCOCCOCCOCCO2", "35.6 µM"]
]}

###

System: KM20L2 colon
Assay: NCI tumour cell line growth inhibition, 48 h
Endpoint Name: TGI

{"columns": ["Compound", "Observed"],
 "data": [
  ["CCCCCCCCCCCCCCCC(=O)NCC(COP(=O)([O-])OCC[N+](C)(C)C)OCC (centres undefined)", "13.7 µM"],
  ["COC1OC(=O)[C@H]2O[N+]([O-])=C(C)[C@@H]12 (some centres undefined)", "> 100 µM"],
  ["O=C1NC(c2ccc(O)cc2)C2CCC1C2 (centres undefined)", "> 100 µM"],
  ["Nc1ccccc1Nc1ccccc1C(=O)[O-].Nc1ccccc1Nc1ccccc1C(=O)[O-].[Cu+2]", "> 100 µM"],
  ["CCOC(=O)C(OCC1CC=CCC1)Sc1ccccc1 (centres undefined)", "> 100 µM"],
  ["COC1O[C@H]2CCN(C(=O)OCc3ccccc3)[C@H]2[C@H]1OCc1ccccc1 (some centres undefined)", "> 100 µM"],
  ["C[N+](C)(C)CC(=O)N/N=c1\\cc(C(=O)Nc2ccc(N=O)cc2C#N)oc2cc(O)ccc12", "> 100 µM"],
  ["O=C(/C=C/c1ccccc1)/C=C/c1ccccc1O", "34.8 µM"],
  ["CCOC(=O)CC1=Nc2ccccc2SC1", "> 100 µM"],
  ["CSC1=NC=CCN1C", "> 100 µM"],
  ["Nc1n[nH]c(=O)[nH]1", "> 100 µM"],
  ["C1COCCN1.C1COCCN1.N.N.[Cl-].[Pt+2]", "> 100 µM"],
  ["C=CC1=CSNN1", "> 100 µM"],
  ["Cc1cc2c(cc1C)[n+](=O)c(C(=O)C/C(=N/NC(=O)c1ccccc1O)C(=O)Nc1ccccc1C(C)C)c(C)n2[O-]", "> 100 µM"]
]}
